Provide the recorded Max MFI for the entries that follow.
- Target of assay: T1, human GPC3 on CHO-K1-human GPC3 cells (clone CHOK1-hGPC3.2B5) (human, UniProt P51654 25-554)
- T1 construct: whole, on cells; Stably transfected CHO-K1 clone 2B5
- Experiment description: FACS on CHOK1-hGPC3.2B5 cells;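 further: flow cytometry binding of chimeric antibodies to the cells, read out as mean fluorescence intensity, with the half-maximal concentration derived by curve fitting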
Your answer is read as MFI, so omit the unit and give the number.

[ask] Recorded Max MFI for F3.54.12 human-murine chimeric antibody (antibody, human IgG1, kappa, V domains shown) VH: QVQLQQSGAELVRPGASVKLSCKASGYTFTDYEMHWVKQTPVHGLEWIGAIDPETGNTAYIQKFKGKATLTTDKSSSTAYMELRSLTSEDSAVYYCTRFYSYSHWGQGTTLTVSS VL: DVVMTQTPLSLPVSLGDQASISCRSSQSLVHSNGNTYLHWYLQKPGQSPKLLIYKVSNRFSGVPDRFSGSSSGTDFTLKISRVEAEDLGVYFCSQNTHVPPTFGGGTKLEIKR , please?
[reply] 15000

[ask] # repeat for F1.110.24 human-murine chimeric antibody (antibody, human IgG1, kappa, V domains shown) VH: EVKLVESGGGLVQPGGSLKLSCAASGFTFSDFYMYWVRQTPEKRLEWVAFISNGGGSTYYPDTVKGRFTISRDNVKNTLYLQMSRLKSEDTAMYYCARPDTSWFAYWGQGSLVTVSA VL: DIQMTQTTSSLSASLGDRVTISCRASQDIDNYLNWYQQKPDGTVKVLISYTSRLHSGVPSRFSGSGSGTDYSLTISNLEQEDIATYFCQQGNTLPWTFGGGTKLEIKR
[reply] 9370

[ask] # repeat for F2.23.8 human-murine chimeric antibody (antibody, human IgG1, kappa, V domains shown) VH: QVQLQQSGAELVRPGASVKLSCKASGYTFTDYEMHWVKQTPVHGLEWFGAIDPETGGTAYNQKFRAKATLTADKSSSTAYMELRSLTSEDSAVYYCTRFYSFAYWGQGTLVTVSA VL: DVVMTQTPLSLPVSLGDQASISCRSSQSLVHSNGNTYLQWYLQKPGQSPKLLIYKVSNRFSGVPDRFSGSGSGTDFTLKITRVEAEDLGVYFCSQSTHVPYTFGSGTKLEIKR
[reply] 23200
